# Test system: HCT-116
# measurement-protocol: Cytotoxicity against p53 deficient human HCT116 cells assessed as cell growth inhibition after 72 hrs by MTS assay
# Assay type: functional, cell-based
# experimental-conditions: HCT-116, 72 h
The following compounds are shown together with reported pIC50 values.
Units for pIC50: none; it is -log10 of a concentration expressed in mol/L.

Worked cases, answers included:
{"columns": ["compound-string", "value-kind", "meas-value"],
 "data": [
  ["Nc1ncnc2c1c1sccc1n2[C@@H]1O[C@H](CO)[C@@H](O)[C@H]1O", "pIC50", 5.36],
  ["CSc1ncnc2c1c1sccc1n2[C@@H]1O[C@H](CO)[C@@H](O)[C@H]1O", "pIC50", 7.05],
  ["CSc1ncnc2c1c1sccc1n2[C@@H]1O[C@H](COP(=O)([O-])O)[C@@H](O)[C@H]1O.[Na+]", "pIC50", 6.89]
]}

**Query** Quick one: give measured pIC50 for Cc1ncnc2c1c1sccc1n2[C@@H]1O[C@H](CO)[C@@H](O)[C@H]1O
**Result** 7.15
